Reported pEC50 values follow for various compounds
study system: human CB2 receptors (Homo sapiens (Human), UniProt P34972)
Sequence (P34972 whole entry): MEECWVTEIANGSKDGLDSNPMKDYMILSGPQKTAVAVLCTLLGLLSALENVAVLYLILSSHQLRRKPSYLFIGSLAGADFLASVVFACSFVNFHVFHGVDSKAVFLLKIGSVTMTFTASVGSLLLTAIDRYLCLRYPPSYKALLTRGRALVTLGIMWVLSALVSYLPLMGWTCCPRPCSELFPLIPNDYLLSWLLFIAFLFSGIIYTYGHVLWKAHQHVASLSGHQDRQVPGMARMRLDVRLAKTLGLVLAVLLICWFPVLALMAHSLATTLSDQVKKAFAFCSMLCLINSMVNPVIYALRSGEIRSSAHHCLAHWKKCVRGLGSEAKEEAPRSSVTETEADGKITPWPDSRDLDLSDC
procedure details: functional cAMP assay, CHO cells expressing human CB2
Type: cell-based
condition info: read-out: Human CB2 EC50
Experimental: CHO cells expressing human CB1 or CB2 receptors are seeded 17-24 hours prior to the experiment 50.000 cells per well in a black 96 well plate with flat clear bottom (Corning Costar #3904) in DMEM (Invitrogen No. 31331), 1×HT supplement, with 10% fetal calf serum and incubated at 5% CO2 and 37° C. in a humidified incubator. […] The time-resolved energy transfer is measured by a TRF reader (Evotec Technologies GmbH), equipped with a ND:YAG laser as excitation source. […]
Please report pEC50 as the negative decimal logarithm of the molar concentration, giving only the number.

> print(dat)
                                   compound  assay.value
1  Cc1nc(C(C)(CC2CC2)NC(=O)c2cc(OCC(F)(F)F)c(C3(F)COC3)cn2)no1 (centres unmarked)         7.58
2  O=C(NCC1(O)CCCCC1)c1cc(OCC2CC2)c(C2CC2)cn1         7.89
3  CNC(=O)[C@@H](NC(=O)c1cc(OC2COC2)c(Cl)cn1)C(C)(C)C         6.69

For the next question, use this compound.
Give its pEC50 value. Item: O=C(N[C@H](c1ccccn1)C(F)(F)F)c1cc(OCC2CC2)c(Cl)cn1
8.51
